test system: VDR homodimer (NR concentration 270 nM); assay: PBM binding z-score (relative to random genomic background probes); higher = stronger binding; sequences stand for … in GC…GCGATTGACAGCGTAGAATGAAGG
Exercise: for every item that follows, state its recorded PBM binding z-score.

# get_value(readout='PBM binding z-score', item= CCTAGCAGGCAAGGGTCACTCAAGCATTTCGCTT )
0.817

Would you mind doing ATCGAAAGGTCGACGAGGTGAGTCTACACCGTTT as well?
0.956

Would you mind doing TCTTGTAGACCAGCAGGTTAAGAAAGCTGGCCAA as well?
-0.234

Would you mind doing AGAATGAGGTTACCAAAGATCAGGGACACGCTTG as well?
0.768

Would you mind doing AATACTGGGTCACTAGGCCAGAGTAGGTACGAAT as well?
0.859

Would you mind doing AATACAGGGTCACTAGGCCTGAGTAGGTACGAAT as well?
1.81

Would you mind doing GCTACCAGGCCATTTGGGTCACTCAATGACGGGC as well?
0.491

Would you mind doing CGTCCAAGGTCAAAGGAGGTCAGTGAAGACAGAT as well?
4.01

Would you mind doing CTGACTGGGGCAGAAAGGTTACCATACCATCCGG as well?
0.339

Would you mind doing CCGACTGGGGCAGAAAAGTTACCATACCATCCGG as well?
-0.39

Would you mind doing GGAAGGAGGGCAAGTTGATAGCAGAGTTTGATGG as well?
2

Would you mind doing TCTGCTAGGTCAACGATGGTTAGCTAATCTGCTA as well?
-0.391

Would you mind doing TAGCCTAGGTCATTGAGCCAGTATAGTACGCATC as well?
1.03

Would you mind doing AGAATGAGGTTATTAAGATCGGGGAATTGCGGTC as well?
1.27

Would you mind doing ATCGAAAGGTCGAGGTGAATATAGAGAAAGGGAA as well?
0.0536

Would you mind doing GCAAGTTGGTCAGTAAAAGGTCACACACCGGTCG as well?
1.96

----------
test system: RARa homodimer (NR concentration 270 nM); assay: PBM binding z-score (relative to random genomic background probes); higher = stronger binding; sequences stand for … in GC…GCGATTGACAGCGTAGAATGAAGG
reported_endpoint: PBM binding z-score
Give your answer as a number; write no unit.

Reported PBM binding z-score for RARa homodimer (NR concentration 270 nM), given CCTGCTAGGTCACTGGTCAGCTAAAGCAGCTCGC ?
-0.0661

Would you mind doing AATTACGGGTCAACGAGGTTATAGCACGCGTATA as well?
1.87

Would you mind doing CCGACTGGGGCATAAGGTAACCATAAGCCAGCCC as well?
-0.0601

Would you mind doing TTACCAAGGTGAGCTGAGGGCGTTGATCCAACTC as well?
-0.757

Would you mind doing TCTATCAGTTGAAGGGCAACCGACGAGTCCGTTT as well?
0.00832

Would you mind doing CCTTACGGGTCAAGGTTATAGCTCGGGTGGTACG as well?
0.652

Would you mind doing CCTATTAGTTGACCGTAAGGGCAACCGAAGCTCG as well?
1.56

Would you mind doing TCTGCTAGGTCAACTATGGTCAGCTAATCTGCTA as well?
0.288

Would you mind doing CCTACTGGGCCAAAGGTTATTGATTCCAATGCTC as well?
-0.256
